Each item that follows carries a reported fold change (FC).
biological target: Protein cereblon/F-box-like/WD repeat-containing protein TBL1X (Homo sapiens) (UniProt Q96SW2+O60907); experiment: PROTAC activity at CRBN/TBL1X in human Ri-1 cells assessed as […] TBL1X level at 0.2 uM incubated for 6 hrs by Western blotting analysis (reference value: 1); type: cell-based
Sequence (O60907 whole entry, looked up): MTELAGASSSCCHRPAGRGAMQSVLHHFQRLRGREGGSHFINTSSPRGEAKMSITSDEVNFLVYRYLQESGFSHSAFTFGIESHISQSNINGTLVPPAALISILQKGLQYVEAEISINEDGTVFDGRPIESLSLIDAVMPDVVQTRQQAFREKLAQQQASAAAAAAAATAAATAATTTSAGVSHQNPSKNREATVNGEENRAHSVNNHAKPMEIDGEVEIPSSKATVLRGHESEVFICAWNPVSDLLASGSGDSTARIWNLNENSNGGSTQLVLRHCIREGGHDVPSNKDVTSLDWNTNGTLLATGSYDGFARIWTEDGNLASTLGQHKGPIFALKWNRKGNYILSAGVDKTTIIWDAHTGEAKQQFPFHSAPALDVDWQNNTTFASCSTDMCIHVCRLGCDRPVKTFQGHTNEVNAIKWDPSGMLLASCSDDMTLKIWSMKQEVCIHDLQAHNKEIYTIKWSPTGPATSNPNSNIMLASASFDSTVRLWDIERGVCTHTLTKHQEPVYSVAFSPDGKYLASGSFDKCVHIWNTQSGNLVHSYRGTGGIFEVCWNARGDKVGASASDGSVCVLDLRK
Sequence (Q96SW2 whole entry, looked up): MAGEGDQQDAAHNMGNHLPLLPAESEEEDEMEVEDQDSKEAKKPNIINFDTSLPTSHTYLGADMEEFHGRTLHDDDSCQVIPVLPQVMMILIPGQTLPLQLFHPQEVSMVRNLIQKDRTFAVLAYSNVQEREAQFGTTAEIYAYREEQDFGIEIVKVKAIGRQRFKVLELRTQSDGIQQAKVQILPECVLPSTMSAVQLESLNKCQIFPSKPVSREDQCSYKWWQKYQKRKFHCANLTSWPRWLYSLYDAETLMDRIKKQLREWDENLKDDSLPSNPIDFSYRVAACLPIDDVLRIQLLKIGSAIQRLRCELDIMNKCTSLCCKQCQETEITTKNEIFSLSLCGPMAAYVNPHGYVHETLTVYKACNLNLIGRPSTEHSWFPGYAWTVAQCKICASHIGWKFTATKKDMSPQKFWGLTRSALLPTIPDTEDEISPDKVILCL
// return a plain number; no unit text

The following compounds have reported results that may help.
# compound, observed.measurement
data = [
    ("CC1CC(C)CN(S(=O)(=O)c2ccc3c(c2)C(=NO)c2cc(S(=O)(=O)N4CC(C)CC(C)C4)ccc2C3=NOCCCNC(=O)CCOCCOCCNc2cccc3c2C(=O)N(C2CCC(=O)NC2=O)C3=O)C1 (stereo unspecified)", 0.63),
    ("CC1CC(C)CN(S(=O)(=O)c2ccc3c(c2)C(=NO)c2cc(S(=O)(=O)N4CC(C)CC(C)C4)ccc2C3=NOCCCNC(=O)CCNc2cccc3c2C(=O)N(C2CCC(=O)NC2=O)C3=O)C1 (stereo unspecified)", 0.41),
    ("CC1CC(C)CN(S(=O)(=O)c2ccc3c(c2)/C(=N\\O)c2cc(S(=O)(=O)N4CCN(C(=O)CCOCCOCCOCCNc5cccc6c5C(=O)N(C5CCC(=O)NC5=O)C6=O)CC4)ccc2/C3=N\\O)C1 (stereo unspecified)", 0.92),
    ("CC1CC(C)CN(S(=O)(=O)c2ccc3c(c2)/C(=N/O)c2cc(S(=O)(=O)N4CCN(C(=O)CCCCCCNc5cccc6c5C(=O)N(C5CCC(=O)NC5=O)C6=O)CC4)ccc2/C3=N\\O)C1 (stereo unspecified)", 1.16),
    ("CC1CC(C)CN(S(=O)(=O)c2ccc3c(c2)/C(=N/O)c2cc(S(=O)(=O)N4CCN(C(=O)CCNc5cccc6c5C(=O)N(C5CCC(=O)NC5=O)C6=O)CC4)ccc2/C3=N\\O)C1 (stereo unspecified)", 1.28),
]

[in] Find the measured fold change (FC) of CC1CC(C)CN(S(=O)(=O)c2ccc3c(c2)/C(=N/O)c2cc(S(=O)(=O)N4CCN(C(=O)CCCCCCCCCCNc5cccc6c5C(=O)N(C5CCC(=O)NC5=O)C6=O)CC4)ccc2/C3=N\O)C1 (stereo unspecified) and report it.
[out] 0.99
